Measured values drawn from paper PMC12416549 for this set.

Target: T1, TNFR1 (Homo sapiens, UniProt P19438)
T1 chain: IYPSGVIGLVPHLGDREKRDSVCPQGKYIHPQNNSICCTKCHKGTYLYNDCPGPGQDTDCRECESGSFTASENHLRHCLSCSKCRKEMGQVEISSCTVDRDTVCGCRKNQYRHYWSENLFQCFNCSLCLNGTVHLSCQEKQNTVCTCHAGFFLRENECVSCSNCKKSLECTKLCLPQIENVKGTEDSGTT
Assay: yeast display SC50
quantity kind: apparent Kd (screen) (nM)
Numbers only, in nM.

Field: example entries. Status: answers known.
binder	apparent Kd (screen) / nM
E83A (designed binder) SMEEEVEKAAKEYEKKKKEAIEKHLEKLKAKDKEAAERFLKELEEAAKEYAKDEAKTMSEEEAKRRAKKYKEKVLLSELSEEAQKEIKEAEEKLVRTILKYVEEAAK	0.405
K33P (designed binder) SMEEEVEKAAKEYEKKKKEAIEKHLEKLKAKDPEAAERFLKELEEAAKEYAKDEAKTMSEEEAKRRAKKYKEKVLLSELSEEEQKEIKEAEEKLVRTILKYVEEAAK	0.593
K68H (designed binder) SMEEEVEKAAKEYEKKKKEAIEKHLEKLKAKDKEAAERFLKELEEAAKEYAKDEAKTMSEEEAKRRAHKYKEKVLLSELSEEEQKEIKEAEEKLVRTILKYVEEAAK	1.4

Please turn your attention to the following entry.
Task: Identify measured apparent Kd (screen) corresponding to K29R (designed binder) SMEEEVEKAAKEYEKKKKEAIEKHLEKLRAKDKEAAERFLKELEEAAKEYAKDEAKTMSEEEAKRRAKKYKEKVLLSELSEEEQKEIKEAEEKLVRTILKYVEEAAK
Output: 0.539
